Entries annotated with measured collision cross section
# assay_explanation: collision cross section of unmodified peptide (TIMS, N2, iRT-aligned); higher = larger / more extended gas-phase ion
# test_parameters: charge state: 3
Please respond with the number in Å² and leave the unit unwritten.

- substance: "AGPNASIISLKSDK"
  collision cross section [Å²]: 483.51
- substance: "VDIDAPDVSIEGPDAKLK"
  collision cross section [Å²]: 544.84
- substance: "GLPGLAGDHGEFGEK"
  collision cross section [Å²]: 504.1
- substance: "ALASIDSKLNQAK"
  collision cross section [Å²]: 481.52
- substance: "VEELEGEITTLNHK"
  collision cross section [Å²]: 513.8

Inquiry: Quick one: collision cross section of `LRQQLQAK` ?
Reply text: 414.5

Inquiry: Quick one: collision cross section of `VRLQTTLR` ?
Reply text: 442.81

Inquiry: Quick one: collision cross section of `GERGPPGPPGR` ?
Reply text: 441.17

Inquiry: Quick one: collision cross section of `GTGRGGGGGGGGGAPR` ?
Reply text: 435.15

Inquiry: Quick one: collision cross section of `ISEILLDHGAPIQAK` ?
Reply text: 537.87

Inquiry: Quick one: collision cross section of `YEEIVKEVSTYIK` ?
Reply text: 492.72

###

# assay_explanation: collision cross section of modified peptide (TIMS, N2, iRT-aligned); higher = larger / more extended gas-phase ion
# test_parameters: charge state: 3; modification: Methyl (K)
Values of collision cross section greater than or equal to 500 Å² map to rule met; values below map to rule not met.

Example entries begin here.
- biosequence: "KFGVLSDNFK [_K(Methyl (K))FGVLSDNFK_]"
  class_assignment: "rule not met"
- biosequence: "AGQKLIDVNHYAK [_AGQK(Methyl (K))LIDVNHYAK_]"
  class_assignment: "rule not met"
- biosequence: "GGPGSTLSFVGKR [_GGPGSTLSFVGK(Methyl (K))R_]"
  class_assignment: "rule not met"

Inquiry: Can SKLLFSNTAAQK [_SK(Methyl (K))LLFSNTAAQK_] be said to have collision cross section at or above 500 Å²?
Reply text: rule not met

Inquiry: Can GADFLVTEVENGGSLGSKK [_GADFLVTEVENGGSLGSK(Methyl (K))K_] be said to have collision cross section at or above 500 Å²?
Reply text: rule met

Inquiry: Can TQDQISNIKYHEEFEK [_TQDQISNIK(Methyl (K))YHEEFEK_] be said to have collision cross section at or above 500 Å²?
Reply text: rule met

Inquiry: Can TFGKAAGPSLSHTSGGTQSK [_TFGK(Methyl (K))AAGPSLSHTSGGTQSK_] be said to have collision cross section at or above 500 Å²?
Reply text: rule met

Inquiry: Can IINEPTAAAIAYGLDKK [_IINEPTAAAIAYGLDK(Methyl (K))K_] be said to have collision cross section at or above 500 Å²?
Reply text: rule met

Inquiry: Can STGLELETPSLVPVKK [_STGLELETPSLVPVK(Methyl (K))K_] be said to have collision cross section at or above 500 Å²?
Reply text: rule met

Inquiry: Can VNIGQGSHPQKVK [_VNIGQGSHPQK(Methyl (K))VK_] be said to have collision cross section at or above 500 Å²?
Reply text: rule not met

Inquiry: Can LEKTIDDLEEK [_LEK(Methyl (K))TIDDLEEK_] be said to have collision cross section at or above 500 Å²?
Reply text: rule not met
